Provide the recorded melting point for the entries that follow.

Please supply the value of reported melting point for the item CC(C)=CCOC(C)C1CC=C2C3=C(CCC21C)C1(C)CCC(OC(=O)CCC(=O)O)C(C)(C)C1CC3 (stereo unspecified)
60 to 67 °C

# map each compound to its melting point
1. N#CCNCNCC#N
2. CCCc1nc2c(N)nc3c(c2n1CC1(O)CCCC1)NCCC3
3. Cc1cc(C(C)(C)C)cc(CN)c1S
4. Cc1cccc2c(CCN3CCCCC3)c(-c3ccccc3)[nH]c12
5. CCOC(=O)c1nc2cc(Br)ccc2c(O)c1C(=O)OCC
6. Cn1cc(C2=C(c3c(S(C)=O)n(C)c4ccccc34)C(=O)NC2=O)c2ccccc21 (stereo unspecified)

1. 83 to 85 °C
2. 207 to 208 °C
3. 127 to 131 °C
4. 159 to 161 °C
5. 234 °C
6. 300 °C

# map each compound to its melting point
1. Cc1cc(C)nc(NC(=O)NS(=O)(=O)c2ccccc2OCCO)n1
2. O=c1oc(-c2ccc(F)cc2)nc2cccc(Cl)c12
3. O=C1CCC(CCc2ccc(-n3ccnc3)cc2)=NN1
4. CNC1=NS(=O)(=O)N=C1NCCSCc1csc(N(C)C)n1
5. COc1ccccc1N1CCN(CCn2c(=O)[nH]c3ccc(O)c(O)c3c2=O)CC1

183 to 190 °C
159 to 162 °C
195 to 196 °C
227 to 229 °C
223 to 227 °C

# map each compound to its melting point
1. O=C(O)c1ccc(CNc2cc(Br)ccc2OCc2ccccc2)cc1
2. CC1(C)CCC(=O)Nc2cc(OCCCN3CCN(c4cccc(Cl)c4Cl)CC3)ccc21
3. O=S(=O)(c1ccc(O)c(-c2ccccc2)c1)c1ccc(O)c(-c2ccccc2)c1
4. O=C1Cc2cc(Cl)ccc2N1O
5. NC(=O)c1ccccc1-n1nnc2cccnc21
6. CC1(C)COc2ccc(C(=O)Nc3ccc(C(=O)O)cc3)cc2OC1

1: 216 to 217 °C; 2: 162 to 164 °C; 3: 243 to 245 °C; 4: 202 to 208 °C; 5: > 340 °C; 6: 249 to 251 °C

# map each compound to its melting point
1. O=C(Nc1cccnc1)N1CCN(c2nccc(-c3ccc(F)cc3F)n2)CC1
2. CC(C)c1nccc2c(CC(=O)O)cccc12

1. 206 to 207 °C
2. 181 to 182 °C

# map each compound to its melting point
1. O=C(Cn1nnnc1-c1ccc2ccccc2c1)OCCO
2. C=CCN1CCc2cc(OC)c(O)cc2C1Cc1ccc(OC)c(OC)c1 (single isomer, unassigned; (+))
3. CC(C)[C@H]1CC[C@H](C(=O)CO)CC1
4. Cc1cc(Br)cnc1CCCCNc1ncc(Cc2cccnc2)cc1N

1. 64 to 66 °C
2. 108 to 112 °C
3. 43 to 44 °C
4. 85 to 87 °C

# map each compound to its melting point
1. COC(=O)c1ccc2[nH]cc(CCCCN3CCN(c4ccc5c(c4)OCCO5)CC3)c2c1
2. CN1CCC(=C2c3ccccc3Sc3ccc(S(=O)(=O)C(F)(F)F)cc32)CC1
3. COc1ccc(OCCCCCCc2c(C)n[nH]c2O)c(Cl)c1
4. COCOc1ccc2c(N)noc2c1

["177 to 179 °C", "125 to 128 °C", "145 to 146 °C", "88 to 89 °C"]

# map each compound to its melting point
1. CCCCC(C)C(=O)C=P(c1ccccc1)(c1ccccc1)c1ccccc1 (stereo unspecified)
2. COCn1cnc(-c2ccc(OC)cc2)c1-c1ccc(OC)cc1
3. CC(C)(C)NC(=O)c1ccc(-c2cccc3cncn23)cc1
4. N#Cc1cccc(-c2cc(-c3cc(C#N)ccc3[N+](=O)[O-])no2)c1
5. NS(=O)(=O)c1ccc(C(=O)Nc2cn3cc(Cl)ccc3n2)cc1
6. C=C(C)C(=O)Nc1cc(C(C)(C)C)c(O)c(C(C)(C)C)c1
7. COc1ccc(S(=O)(=O)N(CCC(F)(F)F)c2ccccc2/C=C/c2ccncc2)cc1

["107 to 109 °C", "99 to 101 °C", "128 to 131 °C", "225 to 227 °C", "> 320 °C", "222 to 225 °C", "124 to 126 °C"]

# map each compound to its melting point
1. CCC(=S)NC[C@H]1CN(c2ccc(N3CCN(C(=O)COc4ccc(CN5CCOCC5)cc4)CC3)c(F)c2)C(=O)O1
2. CCOC(=O)C(C(=O)N(C)C)=C(OC)c1ccc(Cl)cc1Cl
3. CCOP(=O)(/C=C/c1cn(-c2ccccc2)nc1OCc1ccc(OCc2nc(-c3ccc(C)c(C(=O)OC)c3)oc2C)c(OC)c1)OCC
4. COC(=O)/C(=C/c1ccc(OCc2ccccc2)c([N+](=O)[O-])c1)N=[N+]=[N-]
5. O=C(NO)c1ccc(CNC(=O)c2[nH]c(-c3ccccc3)cc2-c2ccc(F)cc2)o1

["159 to 160 °C", "88 to 92 °C", "121 to 122 °C", "95 to 96 °C", "152 to 153 °C"]

Please supply the value of reported melting point for the item `Nc1cc(CCC(=O)N2CCCCC2)ccc1O`
149 to 150 °C

----------
ASSAY_READOUT: melting point

Check out these entries, answers already filled in.
Please supply the value of reported melting point for the item CCOc1ccc2c(c1)C(c1ccccc1Cl)(N(C)C)C(=O)N2S(=O)(=O)c1ccc(NC(=O)N(CC)CC)cc1OC (stereo not drawn)
212 to 214 °C

Please supply the value of reported melting point for the item `CCCN1CCN=C1c1ccccc1C(=O)c1ccc(Cl)cc1`
131 to 133 °C

Please supply the value of reported melting point for the item `CC(=O)c1ccc(OCC(=O)NC2CCN(Cc3ccc(Cl)c(Cl)c3)CC2)cc1`
113 °C

Please supply the value of reported melting point for the item `Cc1nc(-c2cc(C(C)(C)C)c(O)c(C(C)(C)C)c2)no1`
126 to 127 °C

Please supply the value of reported melting point for the item `CCOC(=O)Cc1ccc(-c2nc(COc3ccc(COc4nn(-c5ccccc5)cc4/C=C/c4csc(C)n4)cc3OC)c(C)o2)cc1`
153 to 155 °C

# map each compound to its melting point
1. O=C(c1ccc(-c2cc(Cl)ccc2OCc2ccccc2)cc1C(F)(F)F)N1CCCC1
2. CCOC(=O)c1ccc(-c2cnc3c(c2)N(Cc2cc(F)ccc2F)CCN3)cc1
3. CN(C)C(=O)C=C(c1ccc(-c2ccccc2)cc1)c1ccc(-c2ccccc2)cc1

143 to 144 °C
173 to 174 °C
121 °C

----------
ASSAY_READOUT: melting point

Please supply the value of reported melting point for the item C#CC(O)c1cccc2ccncc12 (stereo unspecified)
138 to 139 °C

Please supply the value of reported melting point for the item `N#Cc1ccccc1Sc1ccc(Cl)cc1`
82 °C

Please supply the value of reported melting point for the item Cc1cc2c(nc1C(O)c1cccnc1)CCCCC2 (stereo unspecified)
124 to 126 °C

Please supply the value of reported melting point for the item `CCOC(=O)c1c(O)ccc(Cc2c[nH]cn2)c1C`
42 to 45 °C

Please supply the value of reported melting point for the item `CCOC(=O)c1cccnc1Oc1cncc(Cl)c1`
65 to 69 °C

# map each compound to its melting point
1. CN(Cc1cc(C(F)(F)F)cc(C(F)(F)F)c1)C(=O)c1nc(N)ncc1-c1ccccc1
2. Cc1nc(-c2cc3cc(OCCNC[C@@H](O)c4csc(C(F)(F)F)n4)ccc3o2)no1
3. COc1ccc(C2=NN(C3CCN(C(=O)N4CCOCC4)CC3)C(=O)[C@@H]3CC=CC[C@H]23)cc1OC
4. Fc1ccc(C2CSCC(=S)N2)cc1 (stereo unspecified)
5. CC(C)C[C@H](NC(=O)CCOc1ccccc1)C(=O)N[C@@H](C(C)C)[C@@H](O)c1c(-c2ccccc2)c1=O

1. 182 °C
2. 143 to 146 °C
3. 184 to 185 °C
4. 107 to 108 °C
5. 92 to 95 °C

Please supply the value of reported melting point for the item `CC(C)C(O)(Cc1ccccc1)Cc1ccccc1`
52 to 53 °C

----------
Provide the recorded melting point for the entries that follow.

Check out these entries, answers already filled in.
Please supply the value of reported melting point for the item `COc1ccc(N(CC(=O)NCCC(=O)O)C(=O)c2ccc(Cl)cc2)cc1`
129 to 131 °C

Please supply the value of reported melting point for the item `Cc1cc(N(C)C)ccc1C=O`
66 to 67 °C

Please supply the value of reported melting point for the item `Cc1n[nH]c2c1CCc1[nH]ncc1-2`
250 to 252 °C

# map each molecule to its melting point
1. COc1ccc2nc(C3=CCN(Cc4ccc(Cl)cc4)CC3)[nH]c2c1
2. COC(=O)C(C)N(C(=O)CCl)c1c(Cl)cccc1Cl (stereo not given)
3. COc1ccc(Cn2c(C)nc3c(Cl)ncnc32)cc1
4. C=CCC1C(OCc2ccccc2)CC(OCc2ccccc2)C1OS(=O)(=O)c1ccc(C)cc1 (single isomer, unassigned; (-))
5. CCC(SCC(=O)O)c1cc2c(cc1C)OCO2 (stereo not given)
6. Cc1cccc(-c2nc3cccnn3c2-c2ccnc(NC(=O)c3cccc(F)c3)c2)c1

1. 203 to 205 °C
2. 82 to 85 °C
3. 121 to 123 °C
4. 57 to 58 °C
5. 98 to 99 °C
6. 204 to 205 °C

Please supply the value of reported melting point for the item Cc1ccc(-c2cccc(OC3SCC(O)C(O)C3O)c2)nc1 (stereo not given)
185 to 189 °C
